# Test system: C. perfringens DSM756
# Experimental Details: microbe, parasite or virus in culture
# Format: cell-based
# Measurement Setup: Clostridium perfringens, DSM756, read-out: strain 16 MIC, strain 16
Quantity Kind: MIC
Answer with the number, then the unit.

[
  {
    "Compound": "CC1(C)[C@H](NC(=O)/C(=N\\OCCOc2ccnc(C(=N)N)c2)c2csc(N)n2)C(=O)N1OS(=O)(=O)O",
    "MIC": "0.5 µg/mL"
  }
]

Count: 3. Required value per item: MIC.
1. Cc1cc(OCCO/N=C(\C(=O)N[C@@H]2C(=O)N(OS(=O)(=O)O)C2(C)C)c2csc(N)n2)ccc1C(=N)N
2. CC1(C)[C@H](NC(=O)/C(=N\OCCOc2cnc(C(=N)N)c(O)c2)c2csc(N)n2)C(=O)N1OS(=O)(=O)O
3. CC1(C)[C@H](NC(=O)/C(=N\OCCOc2ccc(C(=N)N)nc2)c2csc(N)n2)C(=O)N1OS(=O)(=O)O

["2 µg/mL", "2 µg/mL", "2 µg/mL"]

Please state, for each entry, its recorded MIC.
1. CC1(C)[C@H](NC(=O)/C(=N\OCCOc2ccc(C(=N)NCCN)cc2)c2csc(N)n2)C(=O)N1OS(=O)(=O)O
2. CC1(C)[C@H](NC(=O)/C(=N\OCCOc2ccc(C(=N)NCCNC=N)cc2)c2csc(N)n2)C(=O)N1OS(=O)(=O)O
3. CC1(C)[C@H](NC(=O)/C(=N\OCCOc2ccc(C(=N)N[C@H]3CCNC3)cc2)c2csc(N)n2)C(=O)N1OS(=O)(=O)O

1: 2 µg/mL; 2: 2 µg/mL; 3: 8 µg/mL

Provide reported MIC for each item, in the same order as listed.
1. CC1(C)[C@H](NC(=O)/C(=N\OCCOc2cc(C(=N)N)ccn2)c2csc(N)n2)C(=O)N1OS(=O)(=O)O
2. CC1(C)[C@H](NC(=O)/C(=N\OCCOc2ccc(C3=NCCN3)cc2)c2csc(N)n2)C(=O)N1OS(=O)(=O)O
3. CC1(C)[C@H](NC(=O)/C(=N\OCCSc2ccc(C(=N)N)cc2)c2csc(N)n2)C(=O)N1OS(=O)(=O)O
4. C[C@H]1[C@H](NC(=O)/C(=N\OCCOc2ccc(C(=N)N)cc2)c2csc(N)n2)C(=O)N1OCS(=O)(=O)O
5. CC1(C)[C@H](NC(=O)/C(=N\OCCOc2ccc(C(=N)NC3CCNCC3)cc2)c2csc(N)n2)C(=O)N1OS(=O)(=O)O
6. N=C(N)c1ccc(OCCO/N=C(\C(=O)NC2C(=O)N(OS(=O)(=O)O)C23CCCC3)c2csc(N)n2)cc1 (stereo not shown)

2 µg/mL
2 µg/mL
2 µg/mL
16 µg/mL
2 µg/mL
4 µg/mL

====

# Test system: S. pneumoniae 113
# Experimental Details: MIC determination, broth microdilution (CLSI)
# Assay type: cell-based
# Measurement Setup: Streptococcus pneumoniae, 113, strain 13; broth microdilution; read-out: MIC strain 13 (S. pneumoniae 113)
Record form. Attribute: MIC. Fill in for each entry.

Known results for compounds:
[
  {
    "Compound": "C[C@H]1[C@H](NC(=O)/C(=N\\OCCOc2ccc(C(=N)N)cc2CO)c2csc(N)n2)C(=O)N1S(=O)(=O)O",
    "Result": "0.5 µg/mL"
  },
  {
    "Compound": "CC1(C)[C@H](NC(=O)/C(=N\\O[C@@H](COc2ccc(C(=N)NC3CNC3)cc2)C(=O)O)c2csc(N)n2)C(=O)N1OS(=O)(=O)O",
    "Result": "0.5 µg/mL"
  },
  {
    "Compound": "C[C@H]1[C@H](NC(=O)/C(=N\\OCCOc2cc(C(=N)N)n(C)n2)c2csc(N)n2)C(=O)N1S(=O)(=O)O",
    "Result": "2 µg/mL"
  },
  {
    "Compound": "CC1(C)[C@H](NC(=O)/C(=N\\OCCOc2ccc(C(=N)N)cc2)c2csc(N)n2)C(=O)N1OCS(=O)(=O)O",
    "Result": "0.5 µg/mL"
  }
]

Dear colleague, could you send me MIC for each of the items below? Thanks.
1. CC1(C)[C@H](NC(=O)/C(=N\O[C@@H](COc2ccc(C(=N)NCC3CCCN3)cc2)C(=O)O)c2csc(N)n2)C(=O)N1OS(=O)(=O)O (stereo partly drawn)
2. CN(C)CCNC(=N)c1ccc(OCCO/N=C(\C(=O)N[C@@H]2C(=O)N(OS(=O)(=O)O)C2(C)C)c2csc(N)n2)cc1

0.5 µg/mL
≤ 0.063 µg/mL

====

# System: Bacteria
# Experimental Details: MIC determination in combination with β-lactamase inhibitors (constant 4 μg/mL)
# Type: cell-based
# Measurement Setup: strain 19; E. coli J62-TEM-3 + 4 μg/mL clavulanic acid
Quantity Kind: MIC strain 19 (E. coli J62-TEM-3 + 4 μg/mL clavulanic acid) (µg/mL)
One number for each entry, in µg/mL.

Check out these entries, answers already filled in.
[
  {
    "Compound": "C[C@H]1[C@H](NC(=O)/C(=N\\OCCOc2ccc(NC(=N)N)cc2)c2csc(N)n2)C(=O)N1S(=O)(=O)O",
    "Quantitative Readout": 1
  },
  {
    "Compound": "CC1(C)[C@H](NC(=O)/C(=N\\OCCOc2ccc(C(=N)NCc3ccccn3)cc2)c2csc(N)n2)C(=O)N1OS(=O)(=O)O",
    "Quantitative Readout": 0.5
  },
  {
    "Compound": "C[C@H]1[C@H](NC(=O)/C(=N\\OCCOc2ccc(C(=N)NCCOC=O)cc2)c2csc(N)n2)C(=O)N1S(=O)(=O)O",
    "Quantitative Readout": 0.25
  },
  {
    "Compound": "CC1(C)[C@H](NC(=O)/C(=N\\O[C@@H](COc2ccc(C(=N)NCc3ncc[nH]3)cc2)C(=O)O)c2csc(N)n2)C(=O)N1OS(=O)(=O)O",
    "Quantitative Readout": 1
  }
]

# ---- query compound ----
# MIC strain 19 (E. coli J62-TEM-3 + 4 μg/mL clavulanic acid) (compound: CC1(C)[C@H](NC(=O)/C(=N\OC(COc2ccc(C(=N)N)cc2)C(N)=O)c2csc(N)n2)C(=O)N1OS(=O)(=O)O (stereo partly drawn) ) is 0.25

====

Provide the recorded MIC for the entries that follow.
# Tested on: P. aeruginosa 2297 (AmpC wt)
# Experimental Details: MIC determination, broth microdilution (CLSI)
# Format: cell-based
# Measurement Setup: Pseudomonas aeruginosa, strain 7
Give bare numbers, in µg/mL.

See these solved cases before continuing.
[
  {
    "Molecule": "CC1(C)[C@H](NC(=O)/C(=N\\OCC(Oc2ccc(C(=N)N)cc2)C(=O)O)c2csc(N)n2)C(=O)N1OS(=O)(=O)O (single isomer, unassigned) [Example 87B]",
    "Tested Target": "P. aeruginosa 2297 (AmpC wt)",
    "Quantity Kind": "MIC",
    "Unit Descriptor": "µg/mL",
    "Quantitative Readout": 32
  },
  {
    "Molecule": "CC1(C)[C@H](NC(=O)/C(=N\\OCCOc2ccc(C3=NCCN3)cc2)c2csc(N)n2)C(=O)N1OS(=O)(=O)O [Example 25]",
    "Tested Target": "P. aeruginosa 2297 (AmpC wt)",
    "Quantity Kind": "MIC",
    "Unit Descriptor": "µg/mL",
    "Quantitative Readout": 4
  },
  {
    "Molecule": "CC1(C)[C@H](NC(=O)/C(=N\\OCCOc2ccc(C(=N)NCCCN)cc2)c2csc(N)n2)C(=O)N1OS(=O)(=O)O [Example 83]",
    "Tested Target": "P. aeruginosa 2297 (AmpC wt)",
    "Quantity Kind": "MIC",
    "Unit Descriptor": "µg/mL",
    "Quantitative Readout": 4
  },
  {
    "Molecule": "C[C@H]1[C@H](NC(=O)/C(=N\\OCCOc2ccc(C(=N)N)cc2)c2nsc(N)n2)C(=O)N1S(=O)(=O)O [Example 52]",
    "Tested Target": "P. aeruginosa 2297 (AmpC wt)",
    "Quantity Kind": "MIC",
    "Unit Descriptor": "µg/mL",
    "Quantitative Readout": 4
  },
  {
    "Molecule": "C[C@H]1[C@H](NC(=O)/C(=N\\OCCOc2ccc(C(=N)NCCO)cc2)c2csc(N)n2)C(=O)N1S(=O)(=O)O [Example 69]",
    "Tested Target": "P. aeruginosa 2297 (AmpC wt)",
    "Quantity Kind": "MIC",
    "Unit Descriptor": "µg/mL",
    "Quantitative Readout": 8
  }
]

Moving on to another molecule below.
Quick note, MIC for C[C@H]1[C@H](NC(=O)/C(=N\OCCSc2ccc(C(=N)N)cc2)c2csc(N)n2)C(=O)N1S(=O)(=O)O [Example 6] landed at 8

meta.source: patent US9556165B2
